# measurement.description: Toxicity in rat during 7-day tolerability study
# Assay type: organism-based
# recorded.conditions: in vivo
measurement.kind: MTD at 7 day

O=C(CCCN1CCCCC1)Nc1cc(-c2cncc(F)c2)n[nH]1: ≤ 100 mg/kg/day

====

# target.or.system: Neuronal acetylcholine receptor subunit alpha-7 (Rattus norvegicus, UniProt Q05941)
# Sequence (Q05941 whole entry): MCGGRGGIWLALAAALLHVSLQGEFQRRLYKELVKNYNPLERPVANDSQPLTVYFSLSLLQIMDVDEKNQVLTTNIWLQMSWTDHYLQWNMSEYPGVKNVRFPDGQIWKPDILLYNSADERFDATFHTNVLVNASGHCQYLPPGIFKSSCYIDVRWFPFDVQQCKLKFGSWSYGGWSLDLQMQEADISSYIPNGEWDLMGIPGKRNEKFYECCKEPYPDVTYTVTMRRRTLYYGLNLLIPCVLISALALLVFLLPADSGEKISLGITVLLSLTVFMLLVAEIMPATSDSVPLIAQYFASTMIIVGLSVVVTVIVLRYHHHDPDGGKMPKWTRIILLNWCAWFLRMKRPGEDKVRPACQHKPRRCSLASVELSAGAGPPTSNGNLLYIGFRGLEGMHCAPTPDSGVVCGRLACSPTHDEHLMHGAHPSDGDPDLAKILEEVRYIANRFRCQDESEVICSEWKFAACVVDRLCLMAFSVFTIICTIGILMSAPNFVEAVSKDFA
# measurement.description: Agonist activity at rat alpha7 nAchR expressed in rat GH4C1 cells assessed as stimulation of calcium flux by FLIPR
pEC50: −log10 of the molar value.
measurement.kind: pEC50

COc1cccc(-c2cc(NC(=O)CCCN3CCCCC3)[nH]n2)c1: 6.33
COc1ccc(-c2cc(NC(=O)CCCN3CCCCC3)[nH]n2)cc1: 6.38
COc1ccc(-c2cc(NC(=O)CCCN3CCCCCC3)[nH]n2)cc1: 6.04
COc1ccc(-c2cc(NC(=O)CCCN3CCOCC3)[nH]n2)cc1: 5.18
COc1ccc(-c2cc(NC(=O)CCCCCN3CCCN(C(C)=O)CC3)n[nH]2)cc1: 5.92
O=C(CCCN1CCCCC1)Nc1cc(-c2cccc(F)c2)n[nH]1: 6.08
O=C(CCCN1CCCCC1)Nc1cc(-c2cncc(F)c2)n[nH]1: 6.13
COc1ccc(-c2cc(NC(=O)CCCN3CCCOCC3)[nH]n2)cc1: 5.93
COc1ccc(-c2cc(NC(=O)CCCN3CCCN(C(C)=O)CC3)[nH]n2)cc1: 6.04
COc1ccc(-c2cc(NC(=O)CCN3CCCN(C(C)=O)CC3)[nH]n2)cc1: 5.07

====

# target.or.system: Neuronal acetylcholine receptor subunit alpha-7 (Homo sapiens)
# Sequence (P36544 whole entry): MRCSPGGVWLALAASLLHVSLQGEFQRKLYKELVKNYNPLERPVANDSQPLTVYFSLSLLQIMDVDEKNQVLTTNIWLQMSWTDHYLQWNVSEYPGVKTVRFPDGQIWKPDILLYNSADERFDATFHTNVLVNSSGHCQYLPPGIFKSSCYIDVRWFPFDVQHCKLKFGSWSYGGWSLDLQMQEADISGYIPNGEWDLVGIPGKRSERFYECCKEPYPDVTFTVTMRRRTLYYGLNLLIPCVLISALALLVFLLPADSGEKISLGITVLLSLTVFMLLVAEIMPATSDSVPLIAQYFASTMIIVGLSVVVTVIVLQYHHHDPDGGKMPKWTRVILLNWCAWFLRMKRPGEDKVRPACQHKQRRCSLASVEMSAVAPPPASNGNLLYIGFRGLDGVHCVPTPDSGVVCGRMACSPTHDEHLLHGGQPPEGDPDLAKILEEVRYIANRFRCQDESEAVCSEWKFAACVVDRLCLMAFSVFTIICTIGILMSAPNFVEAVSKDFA
# measurement.description: Agonist activity at human alpha7 nAchR by patch clamp assay
pEC50: −log10 of the molar value.
measurement.kind: pEC50

O=C(CCCN1CCCCC1)Nc1cc(-c2cncc(F)c2)n[nH]1: 5.00

====

# measurement.description: Tmax in Wistar rat 10 mg/kg, po
# Assay type: ADME, organism-based
# Design: dose 10 mg/kg, route oral
# recorded.conditions: in vivo
measurement.kind: Tmax (h)

O=C(CCCN1CCCCC1)Nc1cc(-c2cncc(F)c2)n[nH]1: 1

====

Listed below: pIC50 values for each entry.
# target.or.system: 5-hydroxytryptamine receptor 3A (Homo sapiens)
# Sequence (P46098 whole entry): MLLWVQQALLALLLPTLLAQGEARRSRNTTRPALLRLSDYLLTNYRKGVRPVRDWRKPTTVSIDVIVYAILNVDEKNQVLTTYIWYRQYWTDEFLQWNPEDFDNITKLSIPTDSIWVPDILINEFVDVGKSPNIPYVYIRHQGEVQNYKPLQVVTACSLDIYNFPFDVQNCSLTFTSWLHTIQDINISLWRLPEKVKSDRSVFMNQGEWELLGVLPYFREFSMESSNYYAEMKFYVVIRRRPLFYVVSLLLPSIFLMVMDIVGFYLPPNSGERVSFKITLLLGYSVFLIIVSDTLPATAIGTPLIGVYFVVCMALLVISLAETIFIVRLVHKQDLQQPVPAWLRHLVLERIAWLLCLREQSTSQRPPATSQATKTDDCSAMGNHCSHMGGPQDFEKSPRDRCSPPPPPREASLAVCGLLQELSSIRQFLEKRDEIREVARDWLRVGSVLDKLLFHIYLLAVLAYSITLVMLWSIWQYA
# measurement.description: Agonist activity at human 5HT3R expressed in HEK293 cells assessed as stimulation of calcium flux by FLIPR
pIC50: −log10 of the molar value.
measurement.kind: pIC50

COc1ccc(-c2cc(NC(=O)CCCN3CCCCC3)[nH]n2)cc1: < 4.50
COc1ccc(-c2cc(NC(=O)CCCN3CCCCCC3)[nH]n2)cc1: < 4.50

====

# target.or.system: Neuronal acetylcholine receptor subunit alpha-7 (Rattus norvegicus, UniProt Q05941)
# measurement.description: Agonist activity at rat alpha7 nAchR expressed in rat GH4C1 cells by patch clamp assay
# Assay type: functional, cell-based, GH4-C1
pEC50: −log10 of the molar value.
measurement.kind: pEC50

O=C(CCCN1CCCCC1)Nc1cc(-c2cncc(F)c2)n[nH]1: 4.97
